System: MCF-7 (breast cancer)
Assay: Cancer cell growth inhibition, WST-1 colorimetry
Type: cell-based
Settings: Homo sapiens, MCF7, MCF-7, 48 hours
Method: Cultured human cancer cells were added to a 96-well plate. On the following day, a solution of each of the compounds prepared in Examples 13, 23, 29, 36, and 114 (in five concentrations resulting from 10-fold stepwise dilution: 10^−4, 10^−5, 10^−6, 10^−7, or 10^−8 M) was added, followed by incubation for 48 hours. Subsequently, % growth of the cells was measured through colorimetry by use of a WST-1 (Dojindo) reagent for measurement of cell count. […]
Where a name gives a salt, the structure may show the parent alone.
GI50 values, listed per item
Give a bare numeral; the unit nM is implied.

Example molecules with recorded GI50:
>>> test_value("COc1ccc(N(Cc2cncc(-c3cc(OC)c(OC)c(OC)c3)c2)C2CCN(Cc3ccnc(-c4cc(OC)c(OC)c(OC)c4)c3)CC2)cc1 [Example 13, Trihydrochloride]")
700
>>> test_value("COc1cc(-c2cncc(CN(c3ccc(SC)cc3)C3CCN(Cc4ccnc(-c5cc(OC)c(OC)c(OC)c5)c4)CC3)c2)cc(OC)c1OC")
600
>>> test_value("COc1cc(-c2cc(CN3CCC(N(Cc4ccnc(-c5cc(OC)c(OC)c(OC)c5)c4)c4ccc5c(c4)OCO5)CC3)ccn2)cc(OC)c1OC [Example 29, Trihydrochloride]")
700

Kindly state the measured GI50 obtained for COc1cc(OC)cc(N(Cc2ccnc(-c3cc(OC)c(OC)c(OC)c3)c2)C2CCN(Cc3ccnc(-c4cc(OC)c(OC)c(OC)c4)c3)CC2)c1 [Example 23, Trihydrochloride] with MCF-7 (breast cancer).
600

Find the measured GI50: item `COc1cc(-c2cc(CN3CCC(N(C)Cc4ccnc(-c5cc(OC)c(OC)c(OC)c5)c4)CC3)ccn2)cc(OC)c1OC` , target or system MCF-7 (breast cancer).
700
